Sourced from patent US20260092071A1

molecular target: SMARCA2 (Homo sapiens, UniProt P51531); experiment: HiBit assay in engineered HT1080 CRISPR knock-in cell, 6 hrs (B series), SMARCA2; type: cell-based; details: HT-1080, HT1080 CRISPR knock-in cells, 6 hrs incubation; read-out: SMARC A2 HT1080 HiBit Dmax (%)
Sequence (P51531 whole entry): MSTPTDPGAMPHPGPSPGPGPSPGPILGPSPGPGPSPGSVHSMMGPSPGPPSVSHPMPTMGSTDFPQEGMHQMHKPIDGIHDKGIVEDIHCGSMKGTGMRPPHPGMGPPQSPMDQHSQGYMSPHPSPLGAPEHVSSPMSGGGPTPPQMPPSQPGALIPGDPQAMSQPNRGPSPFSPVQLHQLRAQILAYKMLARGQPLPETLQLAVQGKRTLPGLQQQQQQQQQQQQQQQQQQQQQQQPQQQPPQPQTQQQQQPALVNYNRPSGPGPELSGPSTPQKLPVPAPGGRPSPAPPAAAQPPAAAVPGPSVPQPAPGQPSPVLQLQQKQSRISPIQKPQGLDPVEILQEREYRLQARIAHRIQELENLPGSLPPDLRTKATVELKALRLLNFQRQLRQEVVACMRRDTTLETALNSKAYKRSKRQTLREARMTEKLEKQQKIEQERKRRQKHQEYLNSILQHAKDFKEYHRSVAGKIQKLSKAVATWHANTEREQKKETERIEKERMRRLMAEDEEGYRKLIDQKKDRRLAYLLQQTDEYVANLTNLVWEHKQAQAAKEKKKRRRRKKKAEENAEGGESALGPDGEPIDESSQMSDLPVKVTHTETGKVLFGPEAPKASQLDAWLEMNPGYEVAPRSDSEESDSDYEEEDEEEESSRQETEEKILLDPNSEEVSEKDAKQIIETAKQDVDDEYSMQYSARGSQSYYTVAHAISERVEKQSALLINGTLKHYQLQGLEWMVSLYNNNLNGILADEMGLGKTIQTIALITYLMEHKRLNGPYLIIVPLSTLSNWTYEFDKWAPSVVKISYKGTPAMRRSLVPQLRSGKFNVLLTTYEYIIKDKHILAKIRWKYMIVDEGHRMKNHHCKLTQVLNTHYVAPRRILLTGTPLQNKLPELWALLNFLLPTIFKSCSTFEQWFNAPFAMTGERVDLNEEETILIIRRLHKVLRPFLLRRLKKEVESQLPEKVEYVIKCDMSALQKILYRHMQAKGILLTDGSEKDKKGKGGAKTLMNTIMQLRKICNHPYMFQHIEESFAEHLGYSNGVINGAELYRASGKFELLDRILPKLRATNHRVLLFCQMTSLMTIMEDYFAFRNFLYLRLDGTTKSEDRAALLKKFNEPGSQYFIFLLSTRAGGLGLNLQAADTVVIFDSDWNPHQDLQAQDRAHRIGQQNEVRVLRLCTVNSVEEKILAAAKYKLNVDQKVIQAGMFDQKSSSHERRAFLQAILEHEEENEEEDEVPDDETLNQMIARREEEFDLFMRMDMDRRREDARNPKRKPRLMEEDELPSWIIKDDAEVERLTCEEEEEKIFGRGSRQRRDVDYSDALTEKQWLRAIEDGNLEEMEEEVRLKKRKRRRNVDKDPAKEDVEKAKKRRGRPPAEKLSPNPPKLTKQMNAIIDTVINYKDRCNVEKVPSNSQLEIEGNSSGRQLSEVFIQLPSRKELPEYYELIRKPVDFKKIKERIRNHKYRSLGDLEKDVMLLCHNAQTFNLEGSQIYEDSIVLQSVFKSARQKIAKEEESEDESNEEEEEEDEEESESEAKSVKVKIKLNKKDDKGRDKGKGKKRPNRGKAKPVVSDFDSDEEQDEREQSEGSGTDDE
The entries below are paired with their reported Dmax.

Please review the entries below; each comes with its answer.
- compound: "Cc1ncsc1-c1ccc([C@H](C)NC(=O)[C@@H]2C[C@@H](O)CN2C(=O)[C@@H](NC(=O)C2CCC(N3CCC(c4ccc5c(c4)-n4c(nc(=O)c6c(Cl)cccc64)C5(C)C)CC3)CC2)C(C)(C)C)cc1 (some centres unmarked)"
  Dmax: "70 to 90%"
- compound: "Cc1ncsc1-c1ccc([C@H](C)NC(=O)[C@@H]2C[C@@H](O)CN2C(=O)[C@@H](n2cc([C@H](C)N3CCC(c4ccc5c(c4)-n4c(nc(=O)c6c(Cl)cccc64)C5(C)C)CC3)nn2)C(C)(C)C)cc1"
  Dmax: "> 90%"
- compound: "Cc1ncsc1-c1ccc([C@H](CN2CCOCC2)NC(=O)[C@@H]2C[C@@H](O)CN2C(=O)[C@H](C(C)C)n2cc([C@H]3CC[C@H](CN4CCN(c5ccc6c(c5)-n5c(nc(=O)c7c(Cl)cccc75)C6(C)C)CC4)CC3)nn2)cc1"
  Dmax: "> 90%"
- compound: "Cc1ncsc1-c1ccc([C@H](C)NC(=O)[C@@H]2C[C@@H](O)CN2C(=O)[C@H](C(C)C)n2cc([C@H]3CC[C@H](CN4CCC(c5ccc6c(c5)C(C)(C)c5nc(=O)c7c(Cl)cccc7n5-6)CC4)CC3)nn2)cc1"
  Dmax: "> 90%"
- compound: "Cc1ncsc1-c1ccc2c(c1)CCC[C@@H]2NC(=O)[C@@H]1C[C@@H](O)CN1C(=O)[C@@H](n1cc([C@H]2CC[C@H](CN3CCC(c4ccc5c(c4)-n4c(nc(=O)c6c(Cl)cccc64)C5(C)C)CC3)CC2)nn1)C(C)(C)C"
  Dmax: "> 90%"
- compound: "C[C@H](NC(=O)[C@@H]1C[C@@H](O)CN1C(=O)[C@@H](n1cc([C@H]2CC[C@H](CN3CCC(c4ccc5c(c4)-n4c(nc(=O)c6c(Cl)cccc64)C5(C)C)CC3)CC2)nn1)C(C)(C)C)c1ccc(-c2scnc2Cl)cc1"
  Dmax: "> 90%"
- compound: "Cc1ncsc1-c1ccc([C@H](C)NC(=O)[C@@H]2C[C@@H](O)CN2C(=O)[C@H](C(C)C)n2cc(CCCN3CCC(c4ccc5c(c4)C(C)(C)c4nc(=O)c6c(Cl)cccc6n4-5)CC3)nn2)cc1"
  Dmax: "> 90%"
- compound: "Cc1ncsc1-c1ccc(CNC(=O)[C@@H]2C[C@@H](O)CN2C(=O)[C@@H](NC(=O)C2(F)CC2)C(C)(C)C)c(OCCCCN2CCC(c3ccc4c(c3)-n3c(nc(=O)c5c(Cl)cccc53)C4(C)C)CC2)c1"
  Dmax: "> 90%"

Consider the compound shown here: Cc1ncsc1-c1ccc([C@H](C)NC(=O)[C@@H]2C[C@@H](O)CN2C(=O)[C@@H](NC(=O)[C@H]2CC[C@H](CN3CCC(c4ccc5c(c4)-n4c(nc(=O)c6c(Br)cccc64)C5(C)C)CC3)CC2)C(C)(C)C)cc1 What is its recorded Dmax? > 90%

Consider the compound shown here: Cc1ncsc1-c1ccc([C@H](C)NC(=O)[C@@H]2C[C@@H](O)CN2C(=O)[C@@H](n2cc(-c3cccc(CN4CCC(c5ccc6c(c5)-n5c(nc(=O)c7c(Cl)cccc75)C6(C)C)CC4)c3)nn2)C(C)(C)C)cc1 What is its recorded Dmax? > 90%

Consider the compound shown here: C[C@H](NC(=O)[C@@H]1C[C@@H](O)CN1C(=O)[C@@H](n1cc(C2CCC(CN3CCC(c4ccc5c(c4)-n4c(nc(=O)c6c(Cl)cccc64)C54CCCCC4)CC3)CC2)nn1)C(C)(C)C)c1ccc(-c2scnc2CCCN2CCOCC2)cc1 (some centres unmarked) What is its recorded Dmax? > 90%

Consider the compound shown here: Cc1ncsc1-c1ccc([C@H](C)NC(=O)[C@@H]2C[C@@H](O)CN2C(=O)C(c2cc(CN3CCC(c4ccc5c(c4)C(C)(C)c4nc(=O)c6c(Cl)cccc6n4-5)CC3)no2)C(C)C)cc1 (some centres unmarked) What is its recorded Dmax? > 90%

Consider the compound shown here: Cc1ncsc1-c1ccc2c(NC(=O)[C@@H]3C[C@@H](O)CN3C(=O)[C@@H](n3cc([C@H]4CC[C@H](CN5CCC(c6ccc7c(c6)-n6c(nc(=O)c8c(Cl)cccc86)C7(C)C)CC5)CC4)nn3)C(C)(C)C)nccc2c1 What is its recorded Dmax? 70 to 90%
